# subjectOfTest: T1, CTLA4 on the cells of the reporter gene bioassay (human, UniProt P16410 36-223)
# T1 sequence (looked up): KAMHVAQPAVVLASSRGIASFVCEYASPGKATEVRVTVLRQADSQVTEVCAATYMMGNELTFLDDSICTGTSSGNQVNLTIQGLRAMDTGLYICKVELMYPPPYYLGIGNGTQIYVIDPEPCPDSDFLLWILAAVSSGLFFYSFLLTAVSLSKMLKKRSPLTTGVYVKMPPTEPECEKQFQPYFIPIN
# procedureDetails: cell-based or functional assay
measure: Relative Potency (%)
Express the result in % but write the number alone.

Entry Tremelimumab incubated in human serum at 37° C., week 4 (antibody, human IgG2, kappa, V domains shown, Asn-30 deamidated in 34.8% (peptide mapping)) VH: QVQLVESGGGVVQPGRSLRLSCAASGFTFSSYGMHWVRQAPGKGLEWVAVIWYDGSNKYYADSVKGRFTISRDNSKNTLYLQMNSLRAEDTAVYYCARDPRGATLYYYYYGMDVWGQGTTVTVSS VL: DIQMTQSPSSLSASVGDRVTITCRASQSINSYLDWYQQKPGKAPKLLIYAASSLQSGVPSRFSGSGSGTDFTLTISSLQPEDFATYYCQQYYSTPFTFGPGTKVEIKR has what Relative Potency (%)? 76

Recorded values, source patent US20250340643A1.
